A collection of binders and their measured MC4R cAMP EC50
- Target Of Assay: human melanocortin 4 receptor (human, UniProt P32245 1-332)
- Sequence (P32245 whole entry): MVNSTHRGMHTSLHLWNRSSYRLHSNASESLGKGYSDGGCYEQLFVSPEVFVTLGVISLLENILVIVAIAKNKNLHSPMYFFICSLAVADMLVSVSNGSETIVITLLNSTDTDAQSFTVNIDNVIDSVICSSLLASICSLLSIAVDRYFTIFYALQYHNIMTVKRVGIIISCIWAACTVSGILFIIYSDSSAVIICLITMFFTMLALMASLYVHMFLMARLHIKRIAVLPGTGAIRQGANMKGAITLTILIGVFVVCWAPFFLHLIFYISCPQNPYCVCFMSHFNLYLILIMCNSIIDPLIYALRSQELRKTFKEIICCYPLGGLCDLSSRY
- Assay Info: cell-based or functional assay
Positions of bridges follow the written chain, without caps; N, C: chain ends. Non-standard residues stand in square brackets, D forms with d. Pip = O=C(O)[C@@H]1CCCCN1
Don't forget the unit after the number, please.

Reference set (2 entries):
Binder	Metric Name	Result
CAHFXWCAHFXW (D-Phe 4, 10; Cit 5, 11; disulphide Cys1-Cys7; head-to-tail amide Cys1-Trp12, also called c[c[Cys-Ala-His-D-Phe-Cit-Trp-Cys]-Ala-His-D-Phe-Cit-Trp]) [Chem. 19]	MC4R cAMP EC50	0.13 nM
XAHFRWCAHXRW (Pen 1; D-Phe 4, 10; disulphide Pen1-Cys7; head-to-tail amide Pen1-Trp12, also called c[c[Pen-Ala-His-D-Phe-Arg-Trp-Cys]-Ala-His-D-Phe-Arg-Trp]) [Chem. 63]	MC4R cAMP EC50	0.02 nM

Looking for the measured MC4R cAMP EC50 of cyclo(CAH[dF]RWRCAH[dF]RWR) (disulfide 1-8; SMILES C[C@@H]1NC(=O)[C@@H]2CSSC[C@H](NC(=O)[C@H](CCCNC(=N)N)NC(=O)[C@H](Cc3c[nH]c4ccccc34)NC(=O)[C@H](CCCNC(=N)N)NC(=O)[C@@H](Cc3ccccc3)NC(=O)[C@H](Cc3c[nH]cn3)NC1=O)C(=O)N[C@@H](C)C(=O)N[C@@H](Cc1c[nH]cn1)C(=O)N[C@H](Cc1ccccc1)C(=O)N[C@@H](CCCNC(=N)N)C(=O)N[C@@H](Cc1c[nH]c3ccccc13)C(=O)N[C@@H](CCCNC(=N)N)C(=O)N2, also called c[c[Cys-Ala-His-D-Phe-Arg-Trp-Arg-Cys]-Ala-His-D-Phe-Arg-Trp-Arg]) [Chem. 69] , can you help? 1.52 nM

For the binder cyclo(C[Pip]H[dF]HWCAKKKW) (disulfide 1-7, also called c[c[Cys-PIP-His-D-Phe-His-Trp-Cys]-Ala-Lys-Lys-Lys-Trp]) [Chem. 83] , what MC4R cAMP EC50 is on record? 2.15 nM
